Reference source for all entries: patent US7494991B2

system: S. pneumo.; assay: MIC assay, S. pneumo.; type: cell-based, S. pneumoniae
property: MIC (μg/mL) S. pneumo. (µg/mL)
Give a bare numeral; the unit µg/mL is implied.

| line-notation | property | numeric-value |
| --- | --- | --- |
| CO[C@H]1/C=C/O[C@@]2(C)Oc3c(C)c(O)c4c(=O)c(c5oc6c7c(cc(O)c6nc-5c4c3C2=O)N(C)CCCN7C)NC(=O)/C(C)=C\C=C\[C@H](C)[C@H](O)[C@@H](C)[C@@H](O)[C@@H](C)[C@H](O)[C@@H]1C | MIC (μg/mL) S. pneumo. | 0.00012 |
| CO[C@H]1/C=C/O[C@@]2(C)Oc3c(C)c(O)c4c(=O)c(c5oc6c7c(cc(O)c6nc-5c4c3C2=O)N(C)CCN7C)NC(=O)/C(C)=C\C=C\[C@H](C)[C@H](O)[C@@H](C)[C@@H](O)[C@@H](C)[C@H](O)[C@@H]1C | MIC (μg/mL) S. pneumo. | 0.06 |
| CO[C@H]1/C=C/O[C@@]2(C)Oc3c(C)c(O)c4c(=O)c(c5oc6c7c(cc(O)c6nc-5c4c3C2=O)N(C)CCCN7C)NC(=O)/C(C)=C\C=C\[C@H](C)[C@H](O)[C@@H](C)[C@@H](O)[C@@H](C)[C@H](OC(C)=O)[C@@H]1C | MIC (μg/mL) S. pneumo. | 0.008 |

Now consider the entry below.
In: # query: MIC (μg/mL) S. pneumo. of entry CO[C@H]1/C=C/O[C@@]2(C)Oc3c(C)c(O)c4c(=O)c(c5oc6c7c(cc(O)c6nc-5c4c3C2=O)N(C)CCN7C)NC(=O)/C(C)=C\C=C\[C@H](C)[C@H](O)[C@@H](C)[C@@H](O)[C@@H](C)[C@H](OC(C)=O)[C@@H]1C
Out: 0.00012

====

MIC (μg/mL) C. trachomatis values for the compounds below.
system: C. trachomatis; test: MIC assay, C. trachomatis; assay type: cell-based
Give a bare numeral; the unit µg/mL is implied.

These recorded examples may help you get a feel for the data.
| line-notation | MIC (μg/mL) C. trachomatis [µg/mL] |
| --- | --- |
| CO[C@H]1/C=C/O[C@@]2(C)Oc3c(C)c(O)c4c(=O)c(c5oc6c7c(cc(O)c6nc-5c4c3C2=O)N(C)CCN7C)NC(=O)/C(C)=C\C=C\[C@H](C)[C@H](O)[C@@H](C)[C@@H](O)[C@@H](C)[C@H](OC(C)=O)[C@@H]1C | 6.4e-05 |
| CO[C@H]1/C=C/O[C@@]2(C)Oc3c(C)c(O)c4c(=O)c(c5oc6c7c(cc(O)c6nc-5c4c3C2=O)N(C)CCCN7C)NC(=O)/C(C)=C\C=C\[C@H](C)[C@H](O)[C@@H](C)[C@@H](O)[C@@H](C)[C@H](OC(C)=O)[C@@H]1C | 6.4e-05 |
| CO[C@H]1/C=C/O[C@@]2(C)Oc3c(C)c(O)c4c(=O)c(c5oc6c7c(cc(O)c6nc-5c4c3C2=O)N(C)CCN7C)NC(=O)/C(C)=C\C=C\[C@H](C)[C@H](O)[C@@H](C)[C@@H](O)[C@@H](C)[C@H](O)[C@@H]1C | 0.001 |

In: # query: MIC (μg/mL) C. trachomatis of entry CO[C@H]1/C=C/O[C@@]2(C)Oc3c(C)c(O)c4c(=O)c(c5oc6c7c(cc(O)c6nc-5c4c3C2=O)N(C)CCCN7C)NC(=O)/C(C)=C\C=C\[C@H](C)[C@H](O)[C@@H](C)[C@@H](O)[C@@H](C)[C@H](O)[C@@H]1C
Out: 0.001
